Biological target: COX-2 (Homo sapiens, UniProt P35354)
Construct: purchased Abcam, UK
Sequence (P35354 18-604): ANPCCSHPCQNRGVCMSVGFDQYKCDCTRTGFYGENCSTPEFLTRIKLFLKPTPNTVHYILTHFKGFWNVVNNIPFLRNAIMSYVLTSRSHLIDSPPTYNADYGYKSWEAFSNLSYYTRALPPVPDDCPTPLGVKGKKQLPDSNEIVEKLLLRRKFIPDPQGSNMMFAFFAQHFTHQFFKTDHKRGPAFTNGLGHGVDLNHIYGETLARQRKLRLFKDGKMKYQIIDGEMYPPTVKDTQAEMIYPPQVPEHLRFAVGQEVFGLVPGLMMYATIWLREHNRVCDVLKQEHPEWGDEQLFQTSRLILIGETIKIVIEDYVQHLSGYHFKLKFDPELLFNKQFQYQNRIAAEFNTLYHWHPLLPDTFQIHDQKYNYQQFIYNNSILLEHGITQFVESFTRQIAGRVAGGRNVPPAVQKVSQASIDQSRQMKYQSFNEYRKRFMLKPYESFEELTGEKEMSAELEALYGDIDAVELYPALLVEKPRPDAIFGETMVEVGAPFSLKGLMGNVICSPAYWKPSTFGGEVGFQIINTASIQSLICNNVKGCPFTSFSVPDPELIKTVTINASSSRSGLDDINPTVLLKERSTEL
Experiment: Fluorometric COX-2 inhibitor screening kit
Assay type: biochemical
Details: at 10 µM; mean ± standard error of two measurements; read-out: COX-2 Percent of Inhibition
MEASURED_ATTRIBUTE: inhibition at 10 µM (%)
A number alone suffices; assume %.

Reference set (3 entries):
[
  {
    "COMPOUND": "CCOC(=O)C(Cc1ccccc1)NC(=S)NC(=O)C(C)c1ccc2cc(OC)ccc2c1 (stereo not shown)",
    "inhibition at 10 µM (%)": 24
  },
  {
    "COMPOUND": "COC(=O)[C@H](Cc1cn(C)c2ccccc12)NC(=S)NC(=O)[C@@H](C)c1ccc2cc(OC)ccc2c1",
    "inhibition at 10 µM (%)": 24.2
  },
  {
    "COMPOUND": "CCOc1ccc(NC(=S)NC(=O)[C@@H](C)c2ccc3cc(OC)ccc3c2)cc1",
    "inhibition at 10 µM (%)": 23.4
  }
]

Query :: Complete the entry with inhibition at 10 µM for `COc1cccc(NC(=S)NC(=O)[C@@H](C)c2ccc3cc(OC)ccc3c2)c1`
Result :: 37.7

###

experiment: Acute oral toxicity evaluation in rats; format: in vivo, Wistar albino rats; conditions: single oral dose 10 mg/kg, after 14 days, (absolute organ weight × 100%)/body weight
Listed here are compounds together with their documented Relative organ weight, liver.
Could you respond with only the numeric value?

These recorded examples may help you get a feel for the data.
[
  {
    "COMPOUND": "COC(=O)[C@H](Cc1cn(C)c2ccccc12)NC(=S)NC(=O)[C@@H](C)c1ccc2cc(OC)ccc2c1",
    "Relative organ weight, liver": 2.64
  },
  {
    "COMPOUND": "CCOC(=O)C(Cc1ccccc1)NC(=S)NC(=O)C(C)c1ccc2cc(OC)ccc2c1 (stereo not shown)",
    "Relative organ weight, liver": 3.01
  },
  {
    "COMPOUND": "COc1ccc(NC(=S)NC(=O)[C@@H](C)c2ccc3cc(OC)ccc3c2)cc1",
    "Relative organ weight, liver": 3.07
  },
  {
    "COMPOUND": "COc1cccc(NC(=S)NC(=O)[C@@H](C)c2ccc3cc(OC)ccc3c2)c1",
    "Relative organ weight, liver": 2.45
  },
  {
    "COMPOUND": "CCOc1ccc(NC(=S)NC(=O)[C@@H](C)c2ccc3cc(OC)ccc3c2)cc1",
    "Relative organ weight, liver": 2.85
  },
  {
    "COMPOUND": "COc1ccc2cc([C@H](C)C(=O)NC(=S)Nc3ccc(F)cc3)ccc2c1",
    "Relative organ weight, liver": 2.73
  }
]

--- query ---
Query :: Supply recorded Relative organ weight, liver for `COc1ccc2cc([C@H](C)C(=O)NC(=S)Nc3ccc(C(C)=O)cc3)ccc2c1` here.
Result :: 2.97

###

biological target: 5-LOX (Homo sapiens); construct: purchased Abcam, UK; experiment: Fluorometric 5-LOX inhibitor screening kit; type: biochemical; conditions: mean ± standard error of two measurements
Sequence (P09917 whole entry): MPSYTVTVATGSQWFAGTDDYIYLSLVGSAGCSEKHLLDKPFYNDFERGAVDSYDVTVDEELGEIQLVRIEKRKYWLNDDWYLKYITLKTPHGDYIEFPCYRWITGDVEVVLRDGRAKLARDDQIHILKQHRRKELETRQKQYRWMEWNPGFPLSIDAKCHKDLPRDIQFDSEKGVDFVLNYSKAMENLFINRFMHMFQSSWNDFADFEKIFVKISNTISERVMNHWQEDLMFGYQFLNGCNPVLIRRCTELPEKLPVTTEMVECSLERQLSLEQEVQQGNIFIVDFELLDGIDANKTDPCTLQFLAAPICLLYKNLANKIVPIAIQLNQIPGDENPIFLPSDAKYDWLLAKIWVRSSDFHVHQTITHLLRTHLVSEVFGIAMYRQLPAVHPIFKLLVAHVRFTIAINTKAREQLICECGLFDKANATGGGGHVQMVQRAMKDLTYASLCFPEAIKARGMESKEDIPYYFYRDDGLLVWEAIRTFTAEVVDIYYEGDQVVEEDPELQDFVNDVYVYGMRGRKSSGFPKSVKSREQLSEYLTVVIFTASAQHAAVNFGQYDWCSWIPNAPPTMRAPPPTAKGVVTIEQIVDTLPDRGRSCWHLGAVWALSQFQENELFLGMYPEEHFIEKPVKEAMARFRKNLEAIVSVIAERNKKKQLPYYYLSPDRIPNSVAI
Quick list: log10(IC50) per entry.
Values reflect log10 of reported IC50 (µM).

Would you please look over these solved cases?
[
  {
    "SMILES": "COc1ccc2cc([C@H](C)C(=O)NC(=S)Nc3ccc(F)cc3)ccc2c1",
    "ASSAY_VALUE": 1.28
  },
  {
    "SMILES": "COc1cccc(NC(=S)NC(=O)[C@@H](C)c2ccc3cc(OC)ccc3c2)c1",
    "ASSAY_VALUE": -0.52
  },
  {
    "SMILES": "COc1ccc2cc([C@H](C)C(=O)NC(=S)Nc3ccc(C(C)=O)cc3)ccc2c1",
    "ASSAY_VALUE": 1.22
  },
  {
    "SMILES": "COc1ccc(NC(=S)NC(=O)[C@@H](C)c2ccc3cc(OC)ccc3c2)cc1",
    "ASSAY_VALUE": 1.60
  }
]

Switching to the query record.
Query :: Give the value of log10(IC50) reported for the following: `CCOc1ccc(NC(=S)NC(=O)[C@@H](C)c2ccc3cc(OC)ccc3c2)cc1`
Result :: 0.98

###

assay: Acute oral toxicity evaluation in rats; type: in vivo, Wistar albino rats; conditions: single oral dose 10 mg/kg, after 14 days, (absolute organ weight × 100%)/body weight
MEASURED_ATTRIBUTE: Relative organ weight, heart
// response body must contain only the number

Solved entries:
[
  {
    "COMPOUND": "CCOc1ccc(NC(=S)NC(=O)[C@@H](C)c2ccc3cc(OC)ccc3c2)cc1",
    "ASSAY_VALUE": 0.31
  },
  {
    "COMPOUND": "COc1cccc(NC(=S)NC(=O)[C@@H](C)c2ccc3cc(OC)ccc3c2)c1",
    "ASSAY_VALUE": 0.30
  },
  {
    "COMPOUND": "CCOC(=O)C(Cc1ccccc1)NC(=S)NC(=O)C(C)c1ccc2cc(OC)ccc2c1 (stereo not shown)",
    "ASSAY_VALUE": 0.34
  }
]

Let us move to another entry and its Relative organ weight, heart.
Query :: Give the reported Relative organ weight, heart for this compound. `COc1ccc2cc([C@H](C)C(=O)NC(=S)Nc3ccc(C(C)=O)cc3)ccc2c1`
Result :: 0.31

###

Biological target: COX-2 (Homo sapiens, UniProt P35354)
Sequence (P35354 18-604): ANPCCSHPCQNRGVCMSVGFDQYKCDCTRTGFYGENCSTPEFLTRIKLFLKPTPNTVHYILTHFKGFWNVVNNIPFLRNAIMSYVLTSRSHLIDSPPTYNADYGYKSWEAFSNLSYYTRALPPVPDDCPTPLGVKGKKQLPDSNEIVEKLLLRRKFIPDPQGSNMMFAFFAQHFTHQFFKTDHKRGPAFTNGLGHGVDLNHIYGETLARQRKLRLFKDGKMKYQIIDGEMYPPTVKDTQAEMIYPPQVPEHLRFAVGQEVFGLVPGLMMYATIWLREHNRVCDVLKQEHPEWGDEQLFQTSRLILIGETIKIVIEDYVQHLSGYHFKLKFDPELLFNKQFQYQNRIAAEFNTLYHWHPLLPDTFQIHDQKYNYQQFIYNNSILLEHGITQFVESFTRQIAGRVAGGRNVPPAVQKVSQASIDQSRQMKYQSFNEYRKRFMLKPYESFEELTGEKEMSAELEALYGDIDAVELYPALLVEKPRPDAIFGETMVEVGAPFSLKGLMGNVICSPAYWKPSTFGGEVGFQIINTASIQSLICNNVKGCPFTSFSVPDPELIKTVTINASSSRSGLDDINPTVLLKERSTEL
MEASURED_ATTRIBUTE: pIC50
Scale: negative log10 of molar concentration, which is what pIC50 denotes.

Query :: Specify the recorded pIC50 for COc1ccc2cc([C@H](C)C(=O)O)ccc2c1 [Naproxen, reference compound] , system: COX-2 (Homo sapiens, UniProt P35354).
Result :: 6.70

###

Here the recorded inhibition in vivo at 5 mg/kg is given for each entry.
tested on: carrageenan-induced rat paw edema; test: Carrageenan-induced rat paw edema model; format: in vivo, Wistar albino rats; conditions: Rattus norvegicus, po, 1 h, 5.0 mg/kg per os, 1 h after carrageenan
Output spec: scalar in %, unitless text.

Known inhibition in vivo at 5 mg/kg results, listed for orientation:
[
  {
    "MOLECULE": "COc1ccc2cc([C@H](C)C(=O)NC(=S)Nc3ccc(C(C)=O)cc3)ccc2c1",
    "ASSAY_VALUE": 19.6
  },
  {
    "MOLECULE": "COc1cccc(NC(=S)NC(=O)[C@@H](C)c2ccc3cc(OC)ccc3c2)c1",
    "ASSAY_VALUE": 29.9
  },
  {
    "MOLECULE": "CCOC(=O)C(Cc1ccccc1)NC(=S)NC(=O)C(C)c1ccc2cc(OC)ccc2c1 (centres unmarked)",
    "ASSAY_VALUE": 17.5
  },
  {
    "MOLECULE": "COC(=O)[C@H](Cc1cn(C)c2ccccc12)NC(=S)NC(=O)[C@@H](C)c1ccc2cc(OC)ccc2c1",
    "ASSAY_VALUE": 24.4
  },
  {
    "MOLECULE": "COc1ccc2cc([C@H](C)C(=O)O)ccc2c1 [Naproxen, reference compound]",
    "ASSAY_VALUE": 27.1
  },
  {
    "MOLECULE": "COc1ccc2cc([C@H](C)C(=O)NC(=S)Nc3ccc(F)cc3)ccc2c1",
    "ASSAY_VALUE": -7.22
  }
]

Query :: Look up and report measured inhibition in vivo at 5 mg/kg for this entry: `COc1ccc(NC(=S)NC(=O)[C@@H](C)c2ccc3cc(OC)ccc3c2)cc1`
Result :: 6.53

Query :: Return inhibition in vivo at 5 mg/kg (reported value) for this molecule: `CCOc1ccc(NC(=S)NC(=O)[C@@H](C)c2ccc3cc(OC)ccc3c2)cc1`
Result :: 6.53
